Biological target: hOGG1 (Homo sapiens, UniProt O15527)
Sequence (O15527 12-323): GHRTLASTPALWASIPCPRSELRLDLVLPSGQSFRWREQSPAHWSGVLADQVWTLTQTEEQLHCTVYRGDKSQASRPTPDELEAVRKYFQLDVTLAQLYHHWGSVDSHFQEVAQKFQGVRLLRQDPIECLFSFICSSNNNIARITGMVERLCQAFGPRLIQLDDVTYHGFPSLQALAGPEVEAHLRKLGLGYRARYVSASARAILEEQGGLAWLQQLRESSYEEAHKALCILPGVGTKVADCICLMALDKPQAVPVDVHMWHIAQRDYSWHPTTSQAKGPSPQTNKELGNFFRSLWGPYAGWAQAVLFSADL
Experiment: Biochemical fluorescence assay to measure enzymatic activity of hOGG1 (OGG1/APEX IC50)
Set-up: Protein His-hOGG1 (12-323) was prepared; His (N); host or cells: E. coli
Details: 1 nM OGG1+2 nM APEX+6 nM dsDNA (8-oxo-dG substrate); pH 7.5; RT 40 min; read-out: OGG1/APEX IC50
Known IC50 of a selection of molecules

Consider the worked cases shown below.
# molecule, system.under.test, IC50
data = [
    ("COc1cc(NC(=O)[C@H]2CC[C@@H](N3Cc4c(C)cc(C5COC5)cc4NC3=O)CC2)ccc1C", "hOGG1 (Homo sapiens, UniProt O15527)", "< 0.1 µM"),
    ("Cc1cc(NC(=O)[C@H]2CC[C@@H](N3Cc4c(C)cccc4C3=O)CC2)ccc1Cl", "hOGG1 (Homo sapiens, UniProt O15527)", "0.1 to 1 µM"),
    ("COc1ccc(NC(=O)[C@H]2CC[C@@H](N3Cc4c(C)ccc(OC)c4NC3=O)CC2)cc1C#N", "hOGG1 (Homo sapiens, UniProt O15527)", "0.1 to 1 µM"),
    ("C=Cc1ccc2c(c1C)CN([C@H]1CC[C@@H](C(=O)Nc3ccc(C)c(OC)c3)CC1)C(=O)N2", "hOGG1 (Homo sapiens, UniProt O15527)", "1 to 10 µM"),
    ("Cc1cc(NCCN(C)C)cc2c1CN([C@H]1CC[C@@H](C(=O)Nc3nc(CCO)cs3)CC1)C2=O", "hOGG1 (Homo sapiens, UniProt O15527)", "1 to 10 µM"),
    ("CNCCNc1cc(Br)c2c(c1)C(=O)N([C@H]1CC[C@@H](C(=O)Nc3ccc(C)c(OC)c3)CC1)C2", "hOGG1 (Homo sapiens, UniProt O15527)", "< 0.1 µM"),
]

[Q] Kindly indicate its recorded IC50. Item: Cc1ccc(NC(=O)[C@H]2CC[C@@H](N3Cc4c(C)cccc4C3=O)CC2)cc1C1COC1
[A] > 10 µM

[Q] Kindly indicate its recorded IC50. Item: COc1cc(NC(=O)[C@H]2CC[C@@H](N3Cc4c(C)cc(O)cc4NC3=O)CC2)ccc1C
[A] < 0.1 µM

[Q] Kindly indicate its recorded IC50. Item: COc1cc(NC(=O)[C@H]2CC[C@@H](N3Cc4c(cccc4C(C)C)C3=O)CC2)ccc1C
[A] > 10 µM

[Q] Kindly indicate its recorded IC50. Item: COc1cc(NC(=O)N2CCC(N3Cc4ccccc4NC3=O)CC2)ccc1C
[A] 0.1 to 1 µM

[Q] Kindly indicate its recorded IC50. Item: COc1ccc(NC(=O)[C@]2(C)CC[C@@H](N3Cc4c(C)cccc4NC3=O)CC2)cc1C#N (single isomer, unassigned)
[A] > 10 µM

====

Target: hOGG1 (Homo sapiens, UniProt O15527)
Test: Biochemical fluorescence assay to measure enzymatic activity of hOGG1 (OGG1/APEX IC50)
Set-up: Protein His-hOGG1 (12-323) was prepared; His (N); host or cells: E. coli
Details: 1 nM OGG1+2 nM APEX+6 nM dsDNA (8-oxo-dG substrate); pH 7.5; RT 40 min; read-out: OGG1/APEX IC50
pIC50: −log10 of the molar value.
Known pIC50 of a selection of molecules

Consider the worked cases shown below.
# molecule, pIC50
records = [
    ("COc1cc(NC(=O)[C@H]2CC[C@@H](N3Cc4c(Cl)cccc4C3=O)CC2)ccc1C", "6.00 to 7.00"),
    ("COc1cc(NC(=O)[C@H]2CC[C@@H](N3Cc4c(ccc(CN)c4C)NC3=O)CC2)ccc1C", "5.00 to 6.00"),
    ("COc1cc(NC(=O)[C@H]2CC[C@@H](N3Cc4c(C)cnc(CN)c4NC3=O)CC2)ccc1C", "> 7.00"),
    ("Cc1cccc2c1CN([C@H]1CC[C@@H](C(=O)Nc3ccc(O)cc3)CC1)C2=O", "5.00 to 6.00"),
    ("COc1cc(NC(=O)[C@H]2CC[C@@H](N3Cc4cc(Br)ccc4C3=O)CC2)ccc1C", "< 5.00"),
]

Here's the next entry for you.
[Q] Give measured pIC50 for COc1cc(NC(=O)[C@H]2CC[C@@H](N3Cc4c(C)cc(N)cc4NC3=O)CC2)ccc1C (hOGG1 (Homo sapiens, UniProt O15527)).
[A] > 7.00

====

Biological target: hOGG1 (Homo sapiens)
Test: Surface Plasma Resonance with hOGG1 to measure compound affinity (OGG1 SPR Kd)
Conditions: Biacore T-200, immobilized his-tagged OGG1; pH 7.4; 2% DMSO; single-cycle kinetics
pKd: −log10 of the molar value.
Known pKd of a selection of compounds

# smiles.representation, quantity.measured, recorded.value
rows = [
    ("COc1ccc(NC(=O)[C@H]2CC[C@@H](N3Cc4c(C)ccnc4NC3=O)CC2)cc1Cl", "pKd", "7.00 to 8.00"),
    ("COc1cc(NC(=O)[C@H]2CC[C@@H](N3Cc4c(C)cc(CN)cc4NC3=O)CC2)ccc1C", "pKd", "≥ 8.00"),
    ("COc1ccc(NC(=O)[C@H]2CC[C@@H](N3Cc4c(C)cccc4C3=O)CC2)cc1C", "pKd", "7.00 to 8.00"),
    ("COc1cc(NC(=O)[C@H]2CC[C@@H](N3Cc4c(C)ccnc4NC3=O)CC2)ccc1C", "pKd", "7.00 to 8.00"),
]

Here's the next entry for you.
[Q] Kindly indicate its recorded pKd. Item: COc1cc(NC(=O)[C@]2(C)CC[C@H](N3Cc4c(C)cccc4C3=O)CC2)ccc1C
[A] 7.00 to 8.00

====

Known IC50 of a selection of compounds
Molecular target: hOGG1 (Homo sapiens, UniProt O15527)
Experiment: Biochemical fluorescence assay to measure enzymatic activity of hOGG1 (OGG1/APEX IC50)
Set-up: Protein His-hOGG1 (12-323) was prepared; His (N); host or cells: E. coli
Details: 1 nM OGG1+2 nM APEX+6 nM dsDNA (8-oxo-dG substrate); pH 7.5; RT 40 min; read-out: OGG1/APEX IC50

Consider the worked cases shown below.
# compound, recorded.value
data = [
    ("COc1cc(NC(=O)[C@H]2CC[C@@H](N3Cc4c(Br)cc(NC5COC5)cc4C3=O)CC2)ccc1C", "100 to 1000 nM"),
    ("COc1cc(NC(=O)[C@H]2CC[C@@H](N3Cc4c(C)cc(-c5nnco5)cc4NC3=O)CC2)ccc1C", "< 100 nM"),
    ("COc1cc(NC(=O)[C@H]2CC[C@@H](N3Cc4c(C)cc([N+](=O)[O-])cc4C3=O)CC2)ccc1C", "< 100 nM"),
    ("COc1cc(NC(=O)N2CCC(N3Cc4c(Br)cccc4C3=O)CC2)ccc1C", "1000 to 10000 nM"),
    ("COc1cc(NC(=O)[C@H]2CC[C@@H](N3Cc4c(O)cccc4C3=O)CC2)ccc1C", "1000 to 10000 nM"),
]

[Q] Kindly indicate its recorded IC50. Item: COc1cc(NC(=O)[C@H]2CC[C@@H](N3Cc4c(C)cc(OCCN(C)C)cc4NC3=O)CC2)ccc1C
[A] < 100 nM

[Q] Kindly indicate its recorded IC50. Item: COc1cc(NC(=O)[C@H]2CC[C@@H](N3Cc4c(cccc4C4CCC4)C3=O)CC2)ccc1C
[A] > 10000 nM

[Q] Kindly indicate its recorded IC50. Item: COc1cc(NC(=O)[C@H]2CC[C@@H](N3Cc4c(C)cc(CN5CC[C@H](O)C5)cc4NC3=O)CC2)ccc1C (stereo in doubt)
[A] < 100 nM

[Q] Kindly indicate its recorded IC50. Item: COc1cc(NC(=O)[C@H]2CC[C@@H](N3Cc4c(C)cncc4NC3=O)CC2)ccc1C
[A] < 100 nM

[Q] Kindly indicate its recorded IC50. Item: COc1cc(NC(=O)[C@H]2CC[C@@H](N3Cc4c(Br)cc(NC(=O)CN(C)C)cc4C3=O)CC2)ccc1C
[A] 100 to 1000 nM

[Q] Kindly indicate its recorded IC50. Item: Cc1cc(NC(=O)[C@H]2CC[C@@H](N3Cc4c(C)cccc4C3=O)CC2)ccc1O
[A] 100 to 1000 nM

[Q] Kindly indicate its recorded IC50. Item: COc1ccc(NC(=O)[C@H]2CC[C@@H](N3Cc4c(C)ccnc4NC3=O)CC2)cc1
[A] 1000 to 10000 nM

====

Known pIC50 of a selection of compounds
Molecular target: hOGG1 (Homo sapiens)
Test: Biochemical fluorescence assay to measure enzymatic activity of hOGG1 (OGG1/APEX IC50)
Design: Protein His-hOGG1 (12-323) was prepared; His (N); host or cells: E. coli
Settings: 1 nM OGG1+2 nM APEX+6 nM dsDNA (8-oxo-dG substrate); pH 7.5; RT 40 min; read-out: OGG1/APEX IC50
pIC50: −log10 of the molar value.

Consider the worked cases shown below.
# compound, pIC50
rows = [
    ("COc1ccc(NC(=O)[C@]2(C)CC[C@H](N3Cc4c(C)cccc4NC3=O)CC2)cc1C (single isomer, unassigned)", "> 7.00"),
    ("COc1cc(NC(=O)[C@H]2CC[C@@H](N3Cc4c(C)cc(C(=O)NCCN(C)C)cc4NC3=O)CC2)ccc1C", "> 7.00"),
    ("COc1cc(NC(=O)[C@H]2CC[C@@H](N3Cc4c(N)cccc4C3=O)CC2)ccc1C", "5.00 to 6.00"),
    ("CCc1cccc2c1CN([C@H]1CC[C@@H](C(=O)Nc3ccc(C)c(OC)c3)CC1)C(=O)N2", "6.00 to 7.00"),
    ("COc1cc(NC(=O)[C@H]2CC[C@@H](N3Cc4c(Br)cc(NCC(C)O)cc4C3=O)CC2)ccc1C (stereo partly shown)", "6.00 to 7.00"),
]

[Q] Give measured pIC50 for COc1cc(NC(=O)[C@H]2CC[C@@H](N3Cc4c(C)cccc4C3=O)CC2)ccc1C#N (hOGG1 (Homo sapiens)).
[A] < 5.00

[Q] Give measured pIC50 for COc1cc(NC(=O)[C@]2(C)CC[C@H](N3Cc4c(C)ccc(OC)c4NC3=O)CC2)ccc1C (hOGG1 (Homo sapiens)).
[A] 6.00 to 7.00

[Q] Give measured pIC50 for C=Cc1cc(C)c2c(c1)NC(=O)N([C@H]1CC[C@@H](C(=O)Nc3ccc(C)c(OC)c3)CC1)C2 (hOGG1 (Homo sapiens)).
[A] 6.00 to 7.00
